Biological target: T1, PD-1 protein (human, UniProt Q15116 25-167, limits assumed)
T1 construct: also called human PD-1
T1 sequence (Q15116 25-167 limits assumed): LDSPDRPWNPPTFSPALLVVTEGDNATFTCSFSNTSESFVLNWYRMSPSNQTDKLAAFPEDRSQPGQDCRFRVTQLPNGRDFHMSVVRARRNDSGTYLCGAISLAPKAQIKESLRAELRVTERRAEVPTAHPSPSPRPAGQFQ
Experiment: blocking ELISA, PD-1 coated, competitor biotin PD-L1
quantity_name: OD450 of PD-L1 bound, antibody at 2.42 µg/mL (OD450)
Number only, in OD450; omit the unit.

Look over these answered cases.
504#SS10 (Fc fusion, not shown: a dimerising Fc or GST; small tags and cut ends, VHH-FC construct from HEK293 cells) VHH: EVQLVESGGGLVQPGASLRLSCTASGSIFSIYAMGWYRQAPGKQRELVAYITSGGSTTYADSVKGRFTISRDNAKNTVYLQMNSLKPEDTAVYYCNRGNYYRDYKPEFWGQGTQVTVSS | 3.28
504#SS12 (Fc fusion, not shown: a dimerising Fc or GST; small tags and cut ends, VHH-FC construct from HEK293 cells) VHH: EVQVVESGGGLVQPGGSLRLSCAVSGRGFSEHAMGWYRQSPGKQREFVAGVTSYGGTNYADSVKGRFTISRDNVGNTVFLQMNSLKPEDTAVYYCNYKRGHYPDGVSTYEYWGQGTQVTVSS | 3.27
504#SS13 (Fc fusion, not shown: a dimerising Fc or GST; small tags and cut ends, VHH-FC construct from HEK293 cells) VHH: EVQVVESGGGSVQPGGSLRLSCAASGRGFTEHAMGWYRQSPGKEREFVAGISSGGSTYYADSVKGRFTVSRDSAGNTVALQMDSLKPEDTAVYYCSYKRGRYPDGVSTLEYWGQGTQVTVSS | 3.29

Okay, next one:
**Query** Given the entry 504#SS9 (Fc fusion, VHH-FC construct from HEK293 cells; not shown: The (G4S)3 linker leading to it is left out with it) VHH: EVQLQESGGGLVQAGGSLRLSCAASGRSFSGYAMAWFRQAPGKEREFVAAVNWNGGSTYYADSVKGRFTISRDNAKDTVYLQMNSLKPEDTAVYYCNARPTFGAYYSDYKSGVDYWGQGTQVTVSS , report its measured OD450 of PD-L1 bound, antibody at 2.42 µg/mL.
**Result** 3.46
